experiment summary: Selectivity index, ratio of CC50 for human MT4 cells to EC50 for HIV-1 IIIB infected in human MT4 cells
Format: toxicity, cell-based
particulars: read-out: Ratio CC50/EC50
// selectivity ratio lookup, one value per entry
Note: the reply should be a number with no unit written.

Query (compound): "COc1ccc(N(C)C(=O)[C@H](Cc2cc(F)cc(F)c2)NC(=O)CN2CCN(C(=O)c3ccc(C)cc3)CC2=O)cc1" ; field requested: selectivity ratio
2.3

// repeat for "COc1ccc(N(C)C(=O)[C@H](Cc2ccccc2)NC(=O)CN2CCN(C(=O)c3ccccc3C(F)(F)F)CC2=O)cc1" and report
6.2

Now for a further compound.
Would you mind telling me what selectivity ratio value was observed for "COc1ccc(C(=O)N2CCN(CC(=O)N[C@@H](Cc3cc(F)cc(F)c3)C(=O)N(C)c3ccc(OC)cc3)C(=O)C2)cc1" ?
4
